assayed-system: UniProt P00786
Sequence (P00786 96-333): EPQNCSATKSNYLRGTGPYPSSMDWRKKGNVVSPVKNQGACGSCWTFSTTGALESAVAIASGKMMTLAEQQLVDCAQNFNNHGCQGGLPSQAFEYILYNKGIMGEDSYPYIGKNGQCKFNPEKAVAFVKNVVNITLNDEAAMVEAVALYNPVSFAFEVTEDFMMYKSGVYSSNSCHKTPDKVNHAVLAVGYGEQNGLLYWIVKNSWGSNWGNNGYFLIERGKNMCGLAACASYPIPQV
procedure-summary: IC50 by competition with radiolabeled general cathepsin probe DCG-04 in rat liver lysate
experimental-conditions: 1 mg/ml rat liver lysate, inhibitor 20 minutes, then DCG-04 1 hour
property-measured: IC50

Answered cases to consult:
INSERT INTO measurements (compound, observed_result) VALUES
  ('CCC[C@H](NC(=O)C1O[C@H]1C(=O)NCC(=O)O)C(=O)N[C@@H](Cc1ccc(O)cc1)C(N)=O (some centres unmarked) [Compound 78]', '> 10 µM'),
  ('CC(C)C[C@H](NC(=O)[C@H]1O[C@@H]1C(=O)NCCc1ccc(O)cc1)C(=O)NCCc1ccccn1 [Compound 63]', '> 10 µM'),
  ('Cc1ccc(C[C@H](NC(=O)C2O[C@H]2C(=O)NCC(=O)O)C(=O)N[C@@H](Cc2ccc(O)cc2)C(N)=O)cc1 (some centres unmarked) [Compound 80]', '> 10 µM'),
  ('CC(C)C[C@H](NC(=O)C1OC1C(=O)NCCCO)C(=O)N[C@@H](Cc1ccc(O)cc1)C(N)=O (some centres unmarked) [Compound 31]', '5.45 µM'),
  ('CCOC(=O)[C@H]1O[C@@H]1C(=O)N[C@@H](CC(C)C)C(=O)NCCc1ccc(O)cc1 [JPMOEt, reference compound]', '4.65 µM'),
  ('CC(C)C[C@H](NC(=O)C1OC1C(=O)O)C(=O)N[C@@H](Cc1ccc(O)cc1)C(N)=O (some centres unmarked) [Compound 60]', '> 25 µM'),
  ('CC(C)C[C@H](NC(=O)C1OC1C(=O)NCCc1ccc(O)cc1)C(=O)N[C@@H](Cc1ccc(O)cc1)C(N)=O (single isomer, unassigned) [Compound 46]', '> 50 µM'),
  ('CCC[C@H](NC(=O)C1O[C@@H]1C(=O)NCC(=O)O)C(=O)N[C@@H](Cc1ccc(O)cc1)C(N)=O (some centres unmarked) [Compound 79]', '5.85 µM');

What value of IC50 has been reported for the following compound? Cc1ccc(C[C@H](NC(=O)[C@H]2OC2C(=O)NCC(=O)O)C(=O)N[C@@H](Cc2ccc(O)cc2)C(N)=O)cc1 (some centres unmarked) [Compound 16]
> 10 µM

What value of IC50 has been reported for the following compound? CC(C)C[C@H](NC(=O)C1O[C@H]1C(=O)NCCCO)C(=O)N[C@@H](Cc1ccc(O)cc1)C(N)=O (some centres unmarked) [Compound 52]
> 50 µM

What value of IC50 has been reported for the following compound? CCC[C@H](NC(=O)C1O[C@@H]1C(=O)O)C(=O)N[C@@H](Cc1ccc(O)cc1)C(N)=O (some centres unmarked) [Compound 77]
0.74 µM

What value of IC50 has been reported for the following compound? CC(C)C[C@H](NC(=O)[C@H]1O[C@@H]1C(=O)O)C(=O)NCCc1ccc(O)cc1 [JPMOH, reference compound]
0.58 µM

What value of IC50 has been reported for the following compound? Cc1ccc(C[C@H](NC(=O)C2O[C@H]2C(=O)O)C(=O)N[C@@H](Cc2ccc(O)cc2)C(N)=O)cc1 (some centres unmarked) [Compound 76]
> 25 µM

What value of IC50 has been reported for the following compound? NC(=O)[C@H](Cc1ccc(O)cc1)NC(=O)[C@H](CC1CCCCC1)NC(=O)C1OC1C(=O)O (some centres unmarked) [Compound 74]
> 25 µM
